- experimental target: Acetylcholinesterase (eeAChE, E.C. 3.1.1.7) (Electrophorus electricus, UniProt O42275)
- Construct: purchased Sigma Aldrich
- Sequence (O42275 24-633): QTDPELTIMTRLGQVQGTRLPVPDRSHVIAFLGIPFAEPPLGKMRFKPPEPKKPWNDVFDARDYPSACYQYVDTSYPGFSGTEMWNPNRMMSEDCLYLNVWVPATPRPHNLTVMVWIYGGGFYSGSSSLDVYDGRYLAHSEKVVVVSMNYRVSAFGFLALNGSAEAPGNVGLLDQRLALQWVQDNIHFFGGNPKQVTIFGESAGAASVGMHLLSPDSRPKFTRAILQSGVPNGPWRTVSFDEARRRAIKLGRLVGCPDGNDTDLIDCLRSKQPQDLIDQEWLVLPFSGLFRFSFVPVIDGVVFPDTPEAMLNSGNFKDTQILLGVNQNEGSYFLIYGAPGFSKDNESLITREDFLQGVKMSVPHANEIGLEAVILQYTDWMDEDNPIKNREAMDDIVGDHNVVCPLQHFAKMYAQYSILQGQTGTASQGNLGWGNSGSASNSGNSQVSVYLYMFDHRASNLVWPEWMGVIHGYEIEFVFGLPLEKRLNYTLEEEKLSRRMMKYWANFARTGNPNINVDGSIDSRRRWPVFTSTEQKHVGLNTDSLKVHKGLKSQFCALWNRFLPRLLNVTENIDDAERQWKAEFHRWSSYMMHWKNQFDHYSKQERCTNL
- assay details: biochemical
- Type: biochemical, electric eel
- settings: pIC50 ± S.E.M. AChE, eeAChE; value in brackets under the IC50
assay metric: pIC50
Interpret pIC50 as the negative base-10 log of the concentration measured in mol/L.

Consider the following illustrative entries.
{"columns": ["record smiles", "pIC50"],
 "data": [
  ["O=P(OCCNCCNc1c2c(nc3ccccc13)CCCC2)(Oc1ccccc1)Oc1ccccc1", 6.30],
  ["CCCCOP(=O)(OCCCC)OCCCNc1c2c(nc3ccccc13)CCCC2", 6.96],
  ["CCCCOP(=O)(NCCCCCCCCNc1c2c(nc3ccccc13)CCCC2)OCCCC", 8.09],
  ["CCOP(=O)(NCCCCCCCCNc1c2c(nc3ccccc13)CCCC2)OCC", 8.21],
  ["CCCCOP(=O)(OCCCC)OCCNCCNc1c2c(nc3ccccc13)CCCC2", 7.09]
]}

Value of measured pIC50 for the entry O=P(OCCCNc1c2c(nc3ccccc13)CCCC2)(Oc1ccccc1)Oc1ccccc1 : 7.23

Lab note: CCCCOP(=O)(NCCCCCCCCCCCCNc1c2c(nc3ccccc13)CCCC2)OCCCC gave pIC50 of 7.79

Just so you know, measured pIC50 for CCOP(=O)(NCCCCCCNc1c2c(nc3ccccc13)CCCC2)OCC came out at 7.49

GET /value?item= O=P(NCCCCCCCCCCCCNc1c2c(nc3ccccc13)CCCC2)(Oc1ccccc1)Oc1ccccc1 &field=pIC50 returns 8.00

* * *

- experimental target: Acetylcholinesterase (eeAChE, E.C. 3.1.1.7) (Electrophorus electricus, UniProt O42275)
- Construct: purchased Sigma Aldrich
- assay details: biochemical
- Assay type: biochemical, electric eel
- settings: eeAChE, Ellman's method, phosphate buffer pH 7.5, room temperature; read-out: IC50 AChE
Threshold-based label: IC50 under 0.1 µM gives fulfilled, IC50 not under 0.1 µM gives not fulfilled.

{"columns": ["molecule", "group label"],
 "data": [
  ["CCOP(=O)(NCCCCCCCCCCCCNc1c2c(nc3ccccc13)CCCC2)OCC [Compound 11]", "fulfilled"],
  ["CCOP(=O)(OCC)OCCCNc1c2c(nc3ccccc13)CCCC2 [Compound 16]", "not fulfilled"],
  ["CCOP(=O)(OCC)OCCNCCNc1c2c(nc3ccccc13)CCCC2 [Compound 19]", "not fulfilled"],
  ["O=P(NCCCCCCNc1c2c(nc3ccccc13)CCCC2)(Oc1ccccc1)Oc1ccccc1 [Compound 7]", "not fulfilled"]
]}

Here's the next entry for you.
Dear reviewer, please state whether O=P(NCCCCCCCCNc1c2c(nc3ccccc13)CCCC2)(Oc1ccccc1)Oc1ccccc1 [Compound 10] has IC50 strictly beneath 0.1 µM.
fulfilled

* * *

- experimental target: butyrylcholinesterase (BChE, E.C. 3.1.1.8) (Equus caballus)
- Construct: purchased Sigma Aldrich
- assay details: biochemical
- Design: species or system equine serum
- settings: pIC50 ± S.E.M. BChE, BChE from equine serum; value in brackets under the IC50
- Description: [33] Inhibitory activity was tested at room temperature on 96-well plate using Ellman’s method. Lyophilised powders of AChE and BChE were dissolved in phosphate buffer (pH 7.5, 0.1 M) with 1% BSA. Each well was filled to a total volume of 330 µL. […] The absorbance was recorded at 1 min intervals for 8 min in total. […]
assay metric: pIC50
Units for pIC50: none; it is -log10 of a concentration expressed in mol/L.

Here are 3 compounds together with their reported answers.
{"columns": ["record smiles", "pIC50"],
 "data": [
  ["CCOP(=O)(NCCCCCCCCNc1c2c(nc3ccccc13)CCCC2)OCC", 7.89],
  ["O=P(NCCCCCCCCCCCCNc1c2c(nc3ccccc13)CCCC2)(Oc1ccccc1)Oc1ccccc1", 8.71],
  ["CCCCOP(=O)(NCCCCCCCCCCCCNc1c2c(nc3ccccc13)CCCC2)OCCCC", 7.21]
]}

We now examine a further compound.
pIC50 reported for this compound CCCCOP(=O)(OCCCC)OCCCNc1c2c(nc3ccccc13)CCCC2 : 7.54

* * *

- assay details: in vitro
- Assay type: cell-based, human
- settings: human; MTT, 24 h incubation; read-out: Cytotoxicity on HepG2 cells IC50
Parameter IC50 at 24 h: see the listing below.

Reference set, count: 5
{"columns": ["molecule", "reported value"],
 "data": [
  ["CCCCOP(=O)(OCCCC)OCCCNc1c2c(nc3ccccc13)CCCC2 [Compound 17]", "72.3 µM"],
  ["CCOP(=O)(NCCCCCCNc1c2c(nc3ccccc13)CCCC2)OCC [Compound 6]", "140 µM"],
  ["CCCCOP(=O)(NCCCCCCCCCCCCNc1c2c(nc3ccccc13)CCCC2)OCCCC [Compound 12]", "20.8 µM"],
  ["CCCCOP(=O)(NCCCCCCCCNc1c2c(nc3ccccc13)CCCC2)OCCCC [Compound 9]", "43.3 µM"],
  ["CCCCOP(=O)(OCCCC)OCCNCCNc1c2c(nc3ccccc13)CCCC2 [Compound 20]", "134 µM"]
]}

Reported IC50 at 24 h ( O=P(OCCCNc1c2c(nc3ccccc13)CCCC2)(Oc1ccccc1)Oc1ccccc1 [Compound 18] ) = 53.8 µM

Record CCOP(=O)(NCCCCCCCCNc1c2c(nc3ccccc13)CCCC2)OCC [Compound 8] , field IC50 at 24 h: 23.7 µM

* * *

Measured Selectivity IC50(eeAChE)/ IC50(BChE) accompanies every entry in the list below.
- experimental target: Acetylcholinesterase (eeAChE, E.C. 3.1.1.7) (Electrophorus electricus, UniProt O42275)
- Construct: purchased Sigma Aldrich
- assay details: biochemical
- Format: biochemical, electric eel
- settings: ratio of IC50 values
Please reply with the value in numeric form only.

Worked cases, Selectivity IC50(eeAChE)/ IC50(BChE) given:
{"columns": ["record smiles", "experimental target", "Selectivity IC50(eeAChE)/ IC50(BChE)"],
 "data": [
  ["CCCCOP(=O)(NCCCCCCCCNc1c2c(nc3ccccc13)CCCC2)OCCCC", "Acetylcholinesterase (eeAChE, E.C. 3.1.1.7) (Electrophorus electricus, UniProt O42275)", 0.2],
  ["O=P(OCCCNc1c2c(nc3ccccc13)CCCC2)(Oc1ccccc1)Oc1ccccc1", "Acetylcholinesterase (eeAChE, E.C. 3.1.1.7) (Electrophorus electricus, UniProt O42275)", 1.55]
]}

Entry CCCCOP(=O)(NCCCCCCCCCCCCNc1c2c(nc3ccccc13)CCCC2)OCCCC ; Selectivity IC50(eeAChE)/ IC50(BChE) = 0.27

Lookup result for CCCCOP(=O)(OCCCC)OCCNCCNc1c2c(nc3ccccc13)CCCC2 ; measured Selectivity IC50(eeAChE)/ IC50(BChE): 0.44

Query O=P(NCCCCCCCCNc1c2c(nc3ccccc13)CCCC2)(Oc1ccccc1)Oc1ccccc1 yields Selectivity IC50(eeAChE)/ IC50(BChE) of 0.24

* * *

We begin with a simple list: items and their reported IC50.
- experimental target: butyrylcholinesterase (BChE, E.C. 3.1.1.8) (Equus caballus, UniProt P81908)
- Construct: purchased Sigma Aldrich
- Sequence (P81908 whole entry): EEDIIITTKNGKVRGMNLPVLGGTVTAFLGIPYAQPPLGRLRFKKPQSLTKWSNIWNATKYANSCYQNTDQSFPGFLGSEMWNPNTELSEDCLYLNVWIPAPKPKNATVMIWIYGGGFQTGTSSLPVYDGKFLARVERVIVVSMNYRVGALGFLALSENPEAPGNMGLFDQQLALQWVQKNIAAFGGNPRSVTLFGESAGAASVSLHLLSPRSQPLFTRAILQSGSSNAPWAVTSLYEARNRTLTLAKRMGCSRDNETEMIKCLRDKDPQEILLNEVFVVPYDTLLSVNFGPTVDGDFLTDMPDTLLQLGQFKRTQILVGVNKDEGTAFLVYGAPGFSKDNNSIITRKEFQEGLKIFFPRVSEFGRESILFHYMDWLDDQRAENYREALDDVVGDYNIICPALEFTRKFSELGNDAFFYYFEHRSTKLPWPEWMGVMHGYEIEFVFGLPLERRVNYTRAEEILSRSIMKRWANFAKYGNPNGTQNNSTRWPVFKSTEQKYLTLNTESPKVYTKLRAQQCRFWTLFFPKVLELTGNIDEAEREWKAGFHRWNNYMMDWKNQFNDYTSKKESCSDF
- assay details: biochemical
- Design: species or system equine serum
- settings: pIC50 ± S.E.M. BChE, BChE from equine serum; value in brackets under the IC50
- Protocol: [33] Inhibitory activity was tested at room temperature on 96-well plate using Ellman’s method. Lyophilised powders of AChE and BChE were dissolved in phosphate buffer (pH 7.5, 0.1 M) with 1% BSA. Each well was filled to a total volume of 330 µL. […] The absorbance was recorded at 1 min intervals for 8 min in total. […]
Give the number; nM is assumed, so skip it.

{"columns": ["record smiles", "reported value"],
 "data": [
  ["CCCCOP(=O)(NCCCCCCCCNc1c2c(nc3ccccc13)CCCC2)OCCCC", 41.5]
]}

Tested on butyrylcholinesterase (BChE, E.C. 3.1.1.8) (Equus caballus, UniProt P81908): O=P(OCCNCCNc1c2c(nc3ccccc13)CCCC2)(Oc1ccccc1)Oc1ccccc1 . Observed IC50: 41

Tested on butyrylcholinesterase (BChE, E.C. 3.1.1.8) (Equus caballus, UniProt P81908), the item CCOP(=O)(NCCCCCCNc1c2c(nc3ccccc13)CCCC2)OCC showed IC50 equal to 6.76

* * *

- assay details: in vitro
- Assay type: cell-based, human
- settings: human; 50 µM, 24 h incubation, MTT, mean ± SD; read-out: Cells viability of SH-SY5Y cell line (% of control)
Label true when viability at 50 µM < 60%; otherwise false.

Take a look at these entries with their results.
{"columns": ["record smiles", "group label"],
 "data": [
  ["O=P(NCCCCCCCCNc1c2c(nc3ccccc13)CCCC2)(Oc1ccccc1)Oc1ccccc1", "false"],
  ["O=P(NCCCCCCNc1c2c(nc3ccccc13)CCCC2)(Oc1ccccc1)Oc1ccccc1", "true"],
  ["CCOP(=O)(OCC)OCCCNc1c2c(nc3ccccc13)CCCC2", "false"],
  ["CCOP(=O)(NCCCCCCCCCCCCNc1c2c(nc3ccccc13)CCCC2)OCC", "true"]
]}

Now look at this one.
Consider CCOP(=O)(OCC)OCCNCCNc1c2c(nc3ccccc13)CCCC2 . Does its viability at 50 µM lie strictly below 60%?
false
